test.description: in vivo
settings: female, NOD/SCID, mouse, blood, ip, 100 μmol/Kg
quantity.measured: concentration at 1 h (µM)
Numeric only. Scale: µM

Which measured concentration at 1 h value corresponds to CCN(CC)CCNC(=O)c1c(C)[nH]c(/C=C2\C(=O)Nc3ccc(F)cc32)c1C [sunitinib, reference compound] ? 10.3

* * *

target.of.assay: PDGFR-β (Homo sapiens, UniProt P09619)
Construct: 557-end
Sequence (P09619 557-1106 limits assumed): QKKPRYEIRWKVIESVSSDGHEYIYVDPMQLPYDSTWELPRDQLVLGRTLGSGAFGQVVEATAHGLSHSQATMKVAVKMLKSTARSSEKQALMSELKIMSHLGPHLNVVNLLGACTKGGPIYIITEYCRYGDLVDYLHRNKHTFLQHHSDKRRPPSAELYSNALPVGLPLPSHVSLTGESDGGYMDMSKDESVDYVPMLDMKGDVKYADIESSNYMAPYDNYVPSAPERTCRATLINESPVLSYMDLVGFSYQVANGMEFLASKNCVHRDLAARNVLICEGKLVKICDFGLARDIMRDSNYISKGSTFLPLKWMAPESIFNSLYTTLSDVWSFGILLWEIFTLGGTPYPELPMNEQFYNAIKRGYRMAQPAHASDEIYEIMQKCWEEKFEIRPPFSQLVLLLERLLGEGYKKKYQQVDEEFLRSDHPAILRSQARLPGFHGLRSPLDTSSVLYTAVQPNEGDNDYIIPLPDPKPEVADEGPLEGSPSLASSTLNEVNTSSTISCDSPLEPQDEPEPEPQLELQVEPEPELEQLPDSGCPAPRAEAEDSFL
test.description: Biochemical tyrosine kinase assay (trans-phosphorylation, GST-fusion protein)
settings: in vitro kinase activity, ± SD; read-out: IC50 PDGFR-b
quantity.measured: pIC50
On this scale, pIC50 is minus log10 of a concentration expressed in M (mol/L).

Which measured pIC50 value corresponds to Cc1[nH]c(/C=C2\C(=O)Nc3ccc(F)cc32)c(C)c1C(=O)NCCN1CCNCC1 [SAP] ? 7.03
